test_target: HN of hPIV-3-GFP virus (on virions and on hPIV-3-infected cells) (human parainfluenza virus 3 (hPIV-3), UniProt P08492 1-572)
Sequence (P08492 whole entry): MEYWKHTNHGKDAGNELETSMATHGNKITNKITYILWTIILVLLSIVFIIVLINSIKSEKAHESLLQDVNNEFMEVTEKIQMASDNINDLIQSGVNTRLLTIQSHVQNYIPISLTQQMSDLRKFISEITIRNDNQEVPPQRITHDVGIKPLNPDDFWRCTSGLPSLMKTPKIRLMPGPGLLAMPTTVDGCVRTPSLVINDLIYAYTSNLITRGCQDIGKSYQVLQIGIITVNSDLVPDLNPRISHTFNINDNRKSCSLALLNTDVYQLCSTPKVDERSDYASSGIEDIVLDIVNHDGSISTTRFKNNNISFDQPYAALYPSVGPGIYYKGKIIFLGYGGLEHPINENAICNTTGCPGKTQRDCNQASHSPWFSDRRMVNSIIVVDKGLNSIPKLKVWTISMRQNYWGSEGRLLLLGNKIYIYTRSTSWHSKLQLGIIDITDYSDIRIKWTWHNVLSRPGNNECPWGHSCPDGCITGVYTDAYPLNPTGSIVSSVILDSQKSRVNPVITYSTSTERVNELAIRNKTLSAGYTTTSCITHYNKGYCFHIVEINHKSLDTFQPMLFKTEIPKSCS
test_protocol: cell-based or functional assay
property: fold higher potency of hPIV-3-GFP neutralization than the monovalent counterpart

| binder | result |
| --- | --- |
| bivalent VHH A2R3-57-57 (VHH, also called bivalent A2R3-57) QVQLQESGGGLVQPGGSLRLSCAASGSIFSTDAMGWYRQPPGKQRELVATITSGGSTNYVDSVKGRFTISRDNAKNTVYLQMNSLKPEDTAVYYCALHQTTGWGLYNDYWGQGTQVTVSSGGGGSGGGGSGGGGSQVQLQESGGGLVQPGGSLRLSCAASGSIFSTDAMGWYRQPPGKQRELVATITSGGSTNYVDSVKGRFTISRDNAKNTVYLQMNSLKPEDTAVYYCALHQTTGWGLYNDYWGQGTQVTVSS | ~150 fold |
| bivalent VHH A2R3-55 (VHH, also called bivalent A2R3-55) QVQLQESGGGLVQAGGSLRLSCAASGSIDRIDAMGWSRQAPGKQRELVATITTGGITNYAVSVKGRFTISRDNAKNTVYLQMNSLKPEDTAVYYCNAQGAPSWGLYEDYWGQGTQVTVSSGGGGSGGGGSGGGGSQVQLQESGGGLVQAGGSLRLSCAASGSIDRIDAMGWSRQAPGKQRELVATITTGGITNYAVSVKGRFTISRDNAKNTVYLQMNSLKPEDTAVYYCNAQGAPSWGLYEDYWGQGTQVTVSS | ~50 fold |
| bivalent VHH A2R3-59-59 (VHH, also called bivalent A2R3-59) QVQLQESGGGLVQPGGSLRLSCAASGSISGINGMGWYRQAPGKQRELVAAITSGGSTNYADSVKGRFTISRDNAKNTVDLQMNSLQPEDTAVYYCYVSSTPSWGLYDDYWGQGTQVTVSSGGGGSGGGGSGGGGSQVQLQESGGGLVQPGGSLRLSCAASGSISGINGMGWYRQAPGKQRELVAAITSGGSTNYADSVKGRFTISRDNAKNTVDLQMNSLQPEDTAVYYCYVSSTPSWGLYDDYWGQGTQVTVSS | ~8 fold |

Turning now to a further record.
Record bivalent VHH A2R3-60-60 (VHH, also called bivalent A2R3-60) QVQLQESGGGLVQPGGSLRLDCAASGTTVSINGMGWYRQAPGKQREFVALSTTGGVTNYADSVKGRFTISMDNAKKTVALQMNSLKPEDTAVYYCNAVASPSWGLYDDYWGQGTQVTVSSGGGGSGGGGSGGGGSQVQLQESGGGLVQPGGSLRLDCAASGTTVSINGMGWYRQAPGKQREFVALSTTGGVTNYADSVKGRFTISMDNAKKTVALQMNSLKPEDTAVYYCNAVASPSWGLYDDYWGQGTQVTVSS , field fold higher potency of hPIV-3-GFP neutralization than the monovalent counterpart: ~7.5 fold

Cited source for all entries: patent US20260159606A1
